- targetDesc: T1, HLA-A*24:02 (human)
- T1 construct: Peptide-receptive MHC class I monomer after UV cleavage of a UV-sensitive ligand
- method: UV-ligand exchange, anti-b2m ELISA; peptide exchange yield grade
quantityMeasured: peptide exchange yield

// known answers, use as guide
>>> experimentalvalue("QAIDLSLNF")
"20 to 50%"
>>> experimentalvalue("VYIDDSVEL")
"≥ 75%"
>>> experimentalvalue("VFDETKNLL")
"20 to 50%"
>>> experimentalvalue("YFVDVTTRI")
"50 to 75%"
>>> experimentalvalue("IYLDRTLLTTI")
"≥ 75%"
>>> experimentalvalue("FYDNSVIIF")
"20 to 50%"

Ask | Consider the binder shown here: RYVNDYTNSF What is its recorded peptide exchange yield?
Reply | ≥ 75%

Ask | Then KLTDNSNQF ?
Reply | 20 to 50%

Ask | Input NYLLYVSDF
Reply | ≥ 75%

Ask | Next binder: SYDETKIKF
Reply | 10 to 20%

Ask | How about KSYHDQTISF ?
Reply | ≥ 75%
